substrate: [O]=[Cr](=[O])([OH])[OH]; test: purified protein; conditions: 100 µM NADH, 5 µM enzyme, 50 mM Tris-HCl, 100 mM NaCl, pH 7.4, 37°C, aerobic
readout_label: kcat (s⁻¹)

{"protein": "Gh-ChrR (Novacetimonas hansenii ATCC 23769; N85A) (protein) MTTTSPLHFVTLLGSLRKASFNAAVARALPEIAPEGIAITPLGSIGTFPHYSQDVQEEGFPAPVLTMAQQIATADAVVIVTPEYAYSVPGVLKNAIDWLSRVSPQPLAGKPVALVTASPGMIGGARAQYHLRQSLVFLDAYVLNRPEAMIGQVTGKVDAQTLELSDVATREFLARQLDALAALARTLSPRAIT", "val": 0.053}
{"protein": "Gh-ChrR (Novacetimonas hansenii ATCC 23769; S118A) (protein) MTTTSPLHFVTLLGSLRKASFNAAVARALPEIAPEGIAITPLGSIGTFPHYSQDVQEEGFPAPVLTMAQQIATADAVVIVTPEYNYSVPGVLKNAIDWLSRVSPQPLAGKPVALVTAAPGMIGGARAQYHLRQSLVFLDAYVLNRPEAMIGQVTGKVDAQTLELSDVATREFLARQLDALAALARTLSPRAIT", "val": 0.3}
{"protein": "Gluconacetobacter hansenii chromate reductase (Gh-ChrR) (enzyme, Gluconacetobacter hansenii ATCC 23769, Gh-ChrR, NAD(P)H-dependent FMN reductase from Gluconacetobacter hansenii ATCC 23769 (ZP_06834583); 193 native residues; codon-optimised synthetic gene in pJexpress411; Monomer 21.3 kDa (193 native residues plus a six-residue C-terminal poly-histidine tag); In the crystal 5-6 N-terminal and 7-9 C-terminal residues are not seen; also called putative chromate reductase; source: E. coli BL21(DE3), …) MTTTSPLHFVTLLGSLRKASFNAAVARALPEIAPEGIAITPLGSIGTFPHYSQDVQEEGFPAPVLTMAQQIATADAVVIVTPEYNYSVPGVLKNAIDWLSRVSPQPLAGKPVALVTASPGMIGGARAQYHLRQSLVFLDAYVLNRPEAMIGQVTGKVDAQTLELSDVATREFLARQLDALAALARTLSPRAIT", "val": 0.25}
{"protein": "Gh-ChrR (Novacetimonas hansenii ATCC 23769; R101A) (protein) MTTTSPLHFVTLLGSLRKASFNAAVARALPEIAPEGIAITPLGSIGTFPHYSQDVQEEGFPAPVLTMAQQIATADAVVIVTPEYNYSVPGVLKNAIDWLSAVSPQPLAGKPVALVTASPGMIGGARAQYHLRQSLVFLDAYVLNRPEAMIGQVTGKVDAQTLELSDVATREFLARQLDALAALARTLSPRAIT", "val": 0.08}
